- System: UACC-257
- Test Name: NCI tumour cell line growth inhibition, 48 h
The source made the active and inactive calls. Rule as the data show it: active = GI50 up to about 1.1 µM and inactive = higher.
Result Type: GI50

N#CCCC1(CCC#N)CCCCCCCCC(CCC#N)(CCC#N)C(O)C1O (stereo not drawn) | > 100 µM (inactive)
O=[N+]([O-])c1ccc(OCc2nnc(CCCCCCCCc3nnc(COc4ccc([N+](=O)[O-])cc4)o3)o2)cc1 | > 100 µM (inactive)
O=c1c(Br)cc2c(-c3ccccc3)c3cc(Br)c(O)c(Br)c3oc-2c1Br | > 100 µM (inactive)
O=C(Cc1nccc2c1[nH]c1ccccc12)OC1C#CCSCC#C/C=C\1 (stereo not drawn) | > 100 µM (inactive)
CN(C)CCCNc1ccnc2c([N+](=O)[O-])cccc12 | 15.5 µM (inactive)
CC1=Nc2c(O)nc(S)nc2NC(c2c(Cl)cccc2Cl)C1 (stereo not drawn) | 3.07 µM (inactive)
Cc1cc(C)c(-c2no/c(=N\S(=O)(=O)c3ccc(Cl)cc3)o2)c(C)c1 | 31.1 µM (inactive)

Could you now consider this next molecule?
# input molecule: CC(=O)c1cc(S(=O)(=O)c2ccc(O)c(C(C)=O)c2)ccc1O ; wanted: its GI50 > 100 µM (inactive)

====

- System: SF-295
- Test Name: NCI tumour cell line growth inhibition, 48 h
The source made the active and inactive calls. No stated cut-off is given here; in the data, active = GI50 up to about 1.1 µM and inactive = higher.
Result Type: GI50

C=C(C(=O)OC)[C@H]1CC/C(C)=C/CC/C(C)=C/CC[C@@]2(C)O[C@@H]2C1 | 11.5 µM (inactive)
COc1ccc(OC)c(NCC(=O)Nn2cnc3ccc(S(=O)(=O)Nc4cc(OC)ccc4OC)cc3c2=O)c1 | 70.3 µM (inactive)

Please go through the list and note GI50 for each molecule.
1. CN(C)CCC(/C=C/c1ccccc1)=N\Nc1ccc(Cl)cc1
2. C[C@H](C(=O)N1C(=O)O[C@@H](c2ccccc2)[C@H]1C)[C@H](c1ccccc1)N(Cc1ccccc1)OC(=O)c1ccccc1
3. CCOC(=O)Nc1ccc2c(c1)c(CCCCCCc1nc3ccccc3c3ccc(NC(=O)OCC)cc13)nc1ccccc12
4. C[n+]1c2ccccc2c(/C=N\NS(=O)(=O)c2ccc(O)c(C(=O)O)c2)c2ccccc21

1: 3.99 µM (inactive); 2: 21.6 µM (inactive); 3: 49.5 µM (inactive); 4: > 100 µM (inactive)

// for each molecule below, give its GI50
1. O=C(O)CCC(c1ccccc1)(c1ccccc1)c1ccccc1
2. O=C1C(c2ccc([N+](=O)[O-])cc2)=[N+]([O-])c2ccccc21
3. CC1(C)OC[C@H](COCOP2(=O)Oc3ccc4ccccc4c3-c3c(ccc4ccccc34)O2)O1
4. Cc1cc2c(cc1C)[n+]([O-])c(C#N)c(Cl)[n+]2[O-]
5. Cn1ccnc1Cn1cc(-c2cccc(-c3cn[nH]c3)c2)cn1
6. Cc1ccccc1NC(=O)c1cc2cc(/N=N/c3ccccc3C(=O)O)ccc2oc1=O

["50.7 µM (inactive)", "42.1 µM (inactive)", "17.6 µM (inactive)", "23.7 µM (inactive)", "> 100 µM (inactive)", "18.5 µM (inactive)"]

Count: 2. Required value per item: GI50.
1. CC(CCOc1ccc2ccc(=O)oc2c1)C1=CC(=O)C(C)(C)O1 (centres undefined)
2. Nc1nc(Cl)nc(NCc2ccccc2)n1

["3.94 µM (inactive)", "> 100 µM (inactive)"]
